# assay.system: HIV Env, isolate 6811.v7.c18 (HIV)
# measurement.notes: cell-based or functional assay
I'd be grateful if you could share measured IC80 (µg/ml) with constrains for these entries.

Example cases with answers are listed next.
ePGDM9 (antibody, V domains shown) VH: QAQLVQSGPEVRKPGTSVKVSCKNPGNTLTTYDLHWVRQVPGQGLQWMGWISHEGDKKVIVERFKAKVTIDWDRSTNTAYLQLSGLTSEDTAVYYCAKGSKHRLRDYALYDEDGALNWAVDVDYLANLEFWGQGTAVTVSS VL: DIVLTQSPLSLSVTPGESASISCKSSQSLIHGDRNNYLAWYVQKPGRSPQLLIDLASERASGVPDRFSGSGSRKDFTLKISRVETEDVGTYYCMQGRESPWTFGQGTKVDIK | > 100 µg/mL
PGDM1400 (antibody, V domains shown) VH: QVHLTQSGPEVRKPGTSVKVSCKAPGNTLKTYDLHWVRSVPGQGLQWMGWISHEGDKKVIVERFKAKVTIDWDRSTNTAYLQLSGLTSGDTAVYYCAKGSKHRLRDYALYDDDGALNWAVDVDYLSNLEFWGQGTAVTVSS VL: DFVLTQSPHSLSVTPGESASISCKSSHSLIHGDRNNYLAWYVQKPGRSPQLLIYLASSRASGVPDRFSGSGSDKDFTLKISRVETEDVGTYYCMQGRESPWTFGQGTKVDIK | > 100 µg/mL

Continue with the binder presented below.
IC80 (µg/ml) with constrains reported for this binder ePGDM5 (antibody, V domains shown) VH: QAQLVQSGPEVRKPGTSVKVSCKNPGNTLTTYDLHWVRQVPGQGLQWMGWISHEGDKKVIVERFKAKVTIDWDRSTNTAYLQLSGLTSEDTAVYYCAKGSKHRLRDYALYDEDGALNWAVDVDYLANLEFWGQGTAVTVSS VL: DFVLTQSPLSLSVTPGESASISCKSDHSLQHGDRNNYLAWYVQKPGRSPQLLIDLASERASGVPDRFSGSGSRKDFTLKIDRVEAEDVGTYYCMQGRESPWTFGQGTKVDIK : > 100 µg/mL
